# tested.system: GPR139 (Homo sapiens, UniProt Q6DWJ6)
# Sequence (Q6DWJ6 1-353): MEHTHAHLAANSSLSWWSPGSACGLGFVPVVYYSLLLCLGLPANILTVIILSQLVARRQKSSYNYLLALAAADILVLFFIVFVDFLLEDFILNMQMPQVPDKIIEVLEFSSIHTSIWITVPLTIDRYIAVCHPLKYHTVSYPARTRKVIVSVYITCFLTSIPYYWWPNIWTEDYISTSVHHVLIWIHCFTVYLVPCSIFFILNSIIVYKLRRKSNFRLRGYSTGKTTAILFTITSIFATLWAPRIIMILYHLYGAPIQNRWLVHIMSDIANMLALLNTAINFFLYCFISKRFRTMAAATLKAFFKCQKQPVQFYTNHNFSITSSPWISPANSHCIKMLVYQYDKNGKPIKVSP
# assay.text: GPR139 Agonist titration / agonist counterscreen assay (calcium detection, HEK-GPR139 cells)
# Type: cell-based
# Set-up: expressed in transfected cells; host or cells: HEK Aequorin cells, Maxcyte transient transfection
# settings: GPR139 Agonist Activity; activity relative to known control
measure: Averaged Max % Response (±St. Dev.) (%)

• CCc1cccc(NC(=O)Cn2ncc3c2-c2ccccc2OC3)c1 [SR-01000098944] = 118.40

[1] Cc1cccc(NC(=O)NCCc2ccc3c(c2)CCCN3C)c1 [SR-01000923247]
[2] Cc1cccc(CCNC(=O)c2c[nH]c3cc(-c4cn[nH]c4)ccc23)c1 [SR-00000007279]
[Q] Between 1 and 2 , whose measured Averaged Max % Response (±St. Dev.) reads higher? Answer with the label corresponding to your selection.
[A] 2

====

# tested.system: GPR139 (Homo sapiens)
# assay.text: GPR139 Agonist titration / agonist counterscreen assay (calcium detection, HEK-GPR139 cells)
# Type: cell-based
# Set-up: expressed in transfected cells; host or cells: HEK Aequorin cells, Maxcyte transient transfection
# settings: GPR139 Agonist Activity
measure: Lipophilic Efficiency (logD)

Consider the following illustrative entries.
- N[C@H](Cc1ccccc1Cl)c1nc2ccc(-c3ccncc3)cc2[nH]1.O=C(O)C(F)(F)F.O=C(O)C(F)(F)F: 3.23
- Cc1cc(Br)ccc1OCC(=O)NNC(=O)c1ccccc1C: 2.40
- CCCCC(=O)OCC(=O)NCc1ccc(C)cc1: 3.80

[a] O=C(Cn1nc(Cc2ccncc2)c2ccccc2c1=O)N1CCCc2ccccc21
[b] Cc1ccccc1CN1CCC(O)(c2ccc(Cl)c(C(F)(F)F)c2)CC1
[Q] Between a and b , whose measured Lipophilic Efficiency (logD) reads higher? Answer with the label corresponding to your selection.
[A] a
(a: 3.34, b: 2.32)

====

# tested.system: GPR139 (Homo sapiens, UniProt Q6DWJ6)
# assay.text: GPR139 Agonist titration / agonist counterscreen assay (calcium detection, HEK-GPR139 cells)
# Type: cell-based
# Set-up: expressed in transfected cells; host or cells: HEK Aequorin cells, Maxcyte transient transfection
# settings: GPR139 Agonist Activity; activity relative to known control
measure: Averaged Max % Response (±St. Dev.) (%)

• O=C(CCCOc1ccc(Cl)cc1Cl)NNC(=O)Cc1ccc2c(c1)OCCO2 [SR-01000065653] = 89.15
• CCCc1nn(CC(=O)NCc2nc3ccccc3n2C)c(=O)c2cc3ccsc3n12 [SR-01000336681] = 81.02
• O=C(CN1CCCN(Cc2ccc(F)cc2Cl)C1=O)NC1CCCC1 [SR-01000146446] = 113.08
• COc1cc(C(=O)NNC(=O)CSc2ccc(C)cc2)cc(OC)c1C [SR-01000070170] = 98.34
• CC1=NNC(=O)C1CC(=O)N/N=C/c1c(Cl)cccc1Cl (stereo not drawn) [SR-01000310664] = 89.42
• CC(C)C(C)(C#N)NC(=O)CSc1nnc(Cc2cccc3ccccc23)n1N (stereo not drawn) [SR-01000052065] = 98.20
• CC(C(=O)NCCc1ccc(Cl)cc1)n1ncn2cccc2c1=O (stereo not drawn) [SR-01000140260] = 114.94
• CC1=NNC(=O)C1CC(=O)N/N=C/c1cccc2ccccc12 (stereo not drawn) [SR-01000080433] = 107.91
• CS(=O)(=O)c1cccc(C(=O)NCCCN2CCc3ccccc32)c1 [SR-01000387617] = 81.90

====

# tested.system: GPR139 (Homo sapiens, UniProt Q6DWJ6)
# assay.text: GPR139 Agonist titration / agonist counterscreen assay (calcium detection, HEK-GPR139 cells)
# Format: cell-based
# Parameters: expressed in transfected cells; host or cells: HEK Aequorin cells, Maxcyte transient transfection
# settings: GPR139 Agonist Activity; fitted dose-response curve
measure: Hill Slope

Consider the following illustrative entries.
* Cc1ccc(CN2CCN(CC(=O)N3CC(C)CC(C)C3)C2=O)cc1 (stereo not drawn) [SR-01000150389] | 0.95
* Cc1ccc(SCC(=O)Nc2nnc(-c3ccco3)o2)cc1 [SR-01000021414] | 0.83
* O=C(COc1ccc2ccccc2c1)NNC(=O)Cc1cccc2ccccc12 [SR-01000316766] | 1.07
* Cc1cc(C)c2c(CC(=O)NNC(=O)COc3ccccc3)coc2c1 [SR-01000301649] | 0.91
* CC(NC(=O)c1ccc2c(c1)N(Cc1ccccc1)C(=O)C[S+]2[O-])c1ccccc1 (stereo not drawn) [SR-01000129845] | 1.01
* CC1(c2ccc(Cl)cc2)NC(=O)N(CC(=O)NCc2cccs2)C1=O (stereo not drawn) [SR-01000058107] | 0.85

[I] Cc1cccnc1NC(=O)Cn1ncc2c1-c1ccccc1OC2 [SR-01000152365]
[II] CN(C)C(CNC(=O)Nc1ccc(Cl)c(Cl)c1)c1cccnc1 (stereo not drawn) [SR-01000127953]
[III] COc1ccccc1OCC(=O)NCCc1ccc2c(c1)CCCN2C [SR-01000911654]
[Q] Given 3 compounds, produce a descending ranking by Hill Slope. Returns: the labels arranged in the requested order.
[A] I, II, III
(I: 0.99, II: 0.56, III: 0.31)

====

# tested.system: GPR139 (Homo sapiens, UniProt Q6DWJ6)
# Sequence (Q6DWJ6 1-353): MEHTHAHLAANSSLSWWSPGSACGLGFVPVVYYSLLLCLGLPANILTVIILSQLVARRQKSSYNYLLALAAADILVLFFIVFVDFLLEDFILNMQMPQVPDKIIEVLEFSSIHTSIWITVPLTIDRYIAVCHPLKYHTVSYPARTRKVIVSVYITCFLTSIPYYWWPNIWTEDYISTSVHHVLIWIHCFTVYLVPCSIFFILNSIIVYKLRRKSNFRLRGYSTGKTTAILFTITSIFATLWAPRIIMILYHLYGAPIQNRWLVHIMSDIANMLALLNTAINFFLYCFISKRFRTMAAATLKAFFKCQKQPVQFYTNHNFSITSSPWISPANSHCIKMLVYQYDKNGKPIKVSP
# assay.text: GPR139 Agonist titration / agonist counterscreen assay (calcium detection, HEK-GPR139 cells)
# Assay type: cell-based
# Parameters: expressed in transfected cells; host or cells: HEK Aequorin cells, Maxcyte transient transfection
# settings: GPR139 Agonist Activity; based on logD
measure: Lipophilic Efficiency (logD)

* O=C(O)c1ccccc1C(=O)c1cccc2ccccc12 [SR-01000391835] | 5.91
* CC(CCc1ccccc1)NC(=O)Cn1cc2c(n1)CCCC2 (stereo not drawn) [SR-01000137757] | 4.32
* CCc1cccc(NC(=O)Cn2ncc3c2-c2ccccc2OC3)c1 [SR-01000098944] | 4.22
* COc1ccc(CCNC(=O)c2cnc(N3CCCC3CO)s2)cc1 (stereo not drawn) [SR-01000652673] | 5.68
* COc1cc(C(C)=O)ccc1OCC(=O)OCC(=O)NCCCc1ccccc1 [SR-01000056458] | 5.10
* Cc1ccc2c(c1)-c1c(cnn1CC(=O)Nc1ccccn1)CO2 [SR-01000152429] | 4.53
* CC1(c2ccc3c(c2)OCCO3)NC(=O)C(CC(=O)NCC2CCCCC2)C1=O (stereo not drawn) [SR-01000074761] | 5.32
* COc1ccc(C2=NN(CC(=O)NCCCN(C)c3ccccc3)C(=O)CC2)cc1 [SR-01000145949] | 5.74
* Cc1cccc(C(=O)NNC(=O)C(C)Oc2ccc(O)cc2O)c1 (stereo not drawn) [SR-01000410744] | 5.27

====

# tested.system: GPR139 (Homo sapiens)
# assay.text: GPR139 Agonist titration / agonist counterscreen assay (calcium detection, HEK-GPR139 cells)
# Type: cell-based
# Parameters: expressed in transfected cells; host or cells: HEK Aequorin cells, Maxcyte transient transfection
# settings: GPR139 Agonist Activity; fitted dose-response curve
measure: Hill Slope

• COc1ccccc1NC(=O)NNC(=O)CN1C(=O)COc2ccccc21 = 0.39
• O=C(Cn1cnc2ccccc21)NCCCn1ccc2ccccc21 = 1.10
• CC(NC(=O)CN1CCN(Cc2ccc(Cl)cc2)C1=O)c1ccccc1 (centres unmarked) = 0.51

[a] CCCc1cc(=O)n2[nH]c(NCc3ccccc3F)nc2n1
[b] COc1ccc(CCC(=O)Nc2ccc(OC)c(N3CCCC3=O)c2)cc1
[Q] Lower value of Hill Slope belongs to which: a or b ? Answer with the label corresponding to your selection.
[A] b
(b: 0.34, a: 0.73)
